Test system: IL-6 (THP-1 cells)
Assay: IL-6 inhibition in LPS-stimulated THP-1 cells (HTRF)
Type: cell-based
Details: Homo sapiens; at 10 μM, given where EC50 >10 μM; IL-6, THP-1 cells, LPS; read-out: percent inhibition at 10 μM
ATTRIBUTE_MEASURED: inhibition at 10 µM (%)
Note: unit % is implicit; provide only the numeric part.

A selection of reference data follows.
{"columns": ["SMILES_TEXT", "ATTRIBUTE_MEASURED", "MEASURED"],
 "data": [
  ["CC(C)(C)C(=O)Nc1cncc(-c2cc3c(-c4cc5c(-c6cccnc6)ccnc5[nH]4)n[nH]c3cn2)c1", "inhibition at 10 µM", 23.3],
  ["Oc1cncc(-c2cc3c(-c4cc5c(-c6ccc(F)cc6)ccnc5[nH]4)n[nH]c3cn2)c1", "inhibition at 10 µM", 7.2]
]}

GET /values?readout=inhibition at 10 µM&item= O=C(Nc1cncc(-c2cc3c(-c4cc5c(-c6ccccc6F)ccnc5[nH]4)n[nH]c3cn2)c1)C1CCCCC1
5.9

GET /values?readout=inhibition at 10 µM&item= O=C(Nc1cncc(-c2cc3c(-c4cc5c(-c6cccnc6)ccnc5[nH]4)n[nH]c3cn2)c1)c1ccccc1
31.8

---

Tested on: SW480 colon cancer cells
Assay: Cell viability assay (CellTiter-Blue)
Assay type: cell-based
Conditions: Homo sapiens, 96 h, four days
pEC50: −log10 of the molar value.
ATTRIBUTE_MEASURED: pEC50

{"columns": ["COMPOUND", "pEC50"],
 "data": [
  ["CC(C)Nc1cncc(-c2cc3c(-c4cc5c(-c6cccnc6)ccnc5[nH]4)n[nH]c3cn2)c1 [Compound 96]", "< 5.00"],
  ["O=C(Nc1cncc(-c2cc3c(-c4cc5c(-c6ccncc6)ccnc5[nH]4)n[nH]c3cn2)c1)C1CCCCC1 [Compound 135]", "< 5.00"],
  ["CC(C)(C)C(=O)Nc1cncc(-c2cc3c(-c4cc5c(-c6cccc(F)c6)ccnc5[nH]4)n[nH]c3cn2)c1 [Compound 8]", 6.14],
  ["CN(C)CCOc1cncc(-c2cc3c(-c4cc5c(-c6cccnc6)ccnc5[nH]4)n[nH]c3cn2)c1 [Compound 563]", "< 5.00"],
  ["CCCC(=O)Nc1cncc(-c2cc3c(-c4cc5c(-c6cc(F)cc(NCCN(C)C)c6)ccnc5[nH]4)n[nH]c3cn2)c1 [Compound 465]", "< 5.00"]
]}

GET /values?readout=pEC50&item= CCC(=O)Nc1cncc(-c2cc3c(-c4cc5c(-c6cccc(F)c6)ccnc5[nH]4)n[nH]c3cn2)c1 [Compound 1]
< 5.00

GET /values?readout=pEC50&item= Cn1cc(-c2cc3c(-c4cc5cccnc5[nH]4)n[nH]c3cn2)cn1 [Compound 652]
< 5.00

GET /values?readout=pEC50&item= O=C(Nc1cncc(-c2cc3c(-c4cc5c(-c6ccncc6)ccnc5[nH]4)n[nH]c3cn2)c1)C1CCC1 [Compound 133]
< 5.00

GET /values?readout=pEC50&item= O=C(Nc1cncc(-c2cc3c(-c4cc5c(-c6cccc(F)c6)ccnc5[nH]4)n[nH]c3cn2)c1)c1ccccc1 [Compound 11]
< 5.00

GET /values?readout=pEC50&item= O=C(Nc1cncc(-c2cc3c(-c4cc5cccnc5[nH]4)n[nH]c3cn2)c1)C1CCCCC1 [Compound 275]
< 5.00

GET /values?readout=pEC50&item= O=C(Nc1cncc(-c2cc3c(-c4cc5c(-c6ccc(F)cc6)ccnc5[nH]4)n[nH]c3cn2)c1)C1CCC1 [Compound 49]
5.33

GET /values?readout=pEC50&item= c1cncc(-c2cc3c(-c4cc5c(N6CCCCC6)ccnc5[nH]4)n[nH]c3cn2)c1 [Compound 172]
5.45

GET /values?readout=pEC50&item= Nc1cncc(-c2cc3c(-c4cc5c(-c6ccccc6F)ccnc5[nH]4)n[nH]c3cn2)c1 [Compound 59]
< 5.00

GET /values?readout=pEC50&item= CC(C)(C)CC(=O)Nc1cncc(-c2cc3c(-c4cc5c(N6CCCCC6)ccnc5[nH]4)n[nH]c3cn2)c1 [Compound 184]
5.37

GET /values?readout=pEC50&item= CN(C)Cc1cncc(-c2cc3c(-c4cc5c(-c6ccccc6F)ccnc5[nH]4)n[nH]c3cn2)c1 [Compound 69]
< 5.00

---

Measured inhibition at 10 µM, listed per entry.
Test system: IL-6 (THP-1 cells)
Assay: IL-6 inhibition in LPS-stimulated THP-1 cells (HTRF)
Type: cell-based
Details: Homo sapiens; at 10 μM, given where EC50 >10 μM; IL-6, THP-1 cells, LPS; read-out: percent inhibition at 10 μM
Note: unit % is implicit; provide only the numeric part.

A selection of reference data follows.
{"columns": ["SMILES_TEXT", "MEASURED"],
 "data": [
  ["CCCCC(=O)Nc1cncc(-c2cc3c(-c4cc5c(-c6ccccc6F)ccnc5[nH]4)n[nH]c3cn2)c1", 0],
  ["c1csc(-c2ccnc3[nH]c(-c4n[nH]c5cnc(-c6cncc(OC7CCCCC7)c6)cc45)cc23)c1", 43.3],
  ["O=C(Nc1cncc(-c2cc3c(-c4cc5c(N6CCCCC6)ccnc5[nH]4)n[nH]c3cn2)c1)C1CC1", 16.2],
  ["O=C(Cc1ccccc1)Nc1cncc(-c2cc3c(-c4cc5c(-c6ccccc6F)ccnc5[nH]4)n[nH]c3cn2)c1", 35.8]
]}

GET /values?readout=inhibition at 10 µM&item= Fc1cccc(-c2ccnc3[nH]c(-c4n[nH]c5cnc(-c6cncc(OCc7ccccc7)c6)cc45)cc23)c1
0

GET /values?readout=inhibition at 10 µM&item= O=C(Cc1ccccc1)Nc1cncc(-c2cc3c(-c4cc5cccnc5[nH]4)n[nH]c3cn2)c1
26.7

GET /values?readout=inhibition at 10 µM&item= CCC(=O)Nc1cncc(-c2cc3c(-c4cc5c(-c6cccc(F)c6)ccnc5[nH]4)n[nH]c3cn2)c1
23.6

---

Tested on: SW480 colon cancer cells
Assay: Cell viability assay (CellTiter-Blue)
Format: cell-based
Conditions: Homo sapiens, 96 h, at 10 μM, given where EC50 >10 μM, four days, read-out: percent inhibition at 10 μM
ATTRIBUTE_MEASURED: inhibition at 10 µM (%)
Note: unit % is implicit; provide only the numeric part.

{"columns": ["SMILES_TEXT", "inhibition at 10 µM, %"],
 "data": [
  ["O=C(Nc1cncc(-c2cc3c(-c4cc5cccnc5[nH]4)n[nH]c3cn2)c1)c1ccccc1", 22.5]
]}

GET /values?readout=inhibition at 10 µM&item= O=C(Nc1cncc(-c2cc3c(-c4cc5c(-c6ccncc6)ccnc5[nH]4)n[nH]c3cn2)c1)C1CCCCC1
10.3

GET /values?readout=inhibition at 10 µM&item= CCNCc1cncc(-c2cc3c(-c4cc5c(-c6ccccc6F)ccnc5[nH]4)n[nH]c3cn2)c1
15.7

---

System: SW480 colon cancer cells
Experiment: Cell viability assay (CellTiter-Blue)
Type: cell-based
Conditions: Homo sapiens, 96 h, at 10 μM, given where EC50 >10 μM, four days, read-out: percent inhibition at 10 μM
ATTRIBUTE_MEASURED: inhibition at 10 µM (%)
Note: unit % is implicit; provide only the numeric part.

GET /values?readout=inhibition at 10 µM&item= CN1CCN(c2ccnc3[nH]c(-c4n[nH]c5cnc(-c6cncc(NC(=O)CC7CCNCC7)c6)cc45)cc23)CC1
13.1

---

Measured pEC50, listed per entry.
System: SW480 colon cancer cells
Test: Cell viability assay (CellTiter-Blue)
Assay type: cell-based
Conditions: Homo sapiens, 96 h, four days
pEC50: −log10 of the molar value.

A selection of reference data follows.
{"columns": ["MOLECULE", "pEC50"],
 "data": [
  ["c1cc(N2CCCCC2)c2cc(-c3n[nH]c4cnc(C5CCNCC5)cc34)[nH]c2n1 [Compound 601]", "< 5.00"],
  ["O=C(Cc1ccccc1)Nc1cncc(-c2cc3c(-c4cc5c(-c6ccncc6)ccnc5[nH]4)n[nH]c3cn2)c1 [Compound 122]", "< 5.00"]
]}

Query molecule follows.
GET /values?readout=pEC50&item= CCNCc1cncc(-c2cc3c(-c4cc5c(-c6cccnc6)ccnc5[nH]4)n[nH]c3cn2)c1 [Compound 90]
< 5.00

---

System: SW480 colon cancer cells
Assay: Cell viability assay (CellTiter-Blue)
Type: cell-based
Settings: Homo sapiens, 96 h, four days
pEC50: −log10 of the molar value.
Measured pEC50, listed per entry.

A selection of reference data follows.
{"columns": ["SMILES_TEXT", "ATTRIBUTE_MEASURED", "MEASURED"],
 "data": [
  ["CN1CCN(c2ccnc3[nH]c(-c4n[nH]c5cnc(-c6cn[nH]c6)cc45)cc23)CC1", "pEC50", "< 5.00"],
  ["CC(C)(C)C(=O)Nc1cncc(-c2cc3c(-c4cc5c(-c6cccnc6)ccnc5[nH]4)n[nH]c3cn2)c1", "pEC50", "< 5.00"],
  ["c1cncc(-c2ccnc3[nH]c(-c4n[nH]c5cnc(-c6cncc(CN7CCCC7)c6)cc45)cc23)c1", "pEC50", "< 5.00"],
  ["CC(C)CC(=O)Nc1cncc(-c2cc3c(-c4cc5cccnc5[nH]4)n[nH]c3cn2)c1", "pEC50", "< 5.00"],
  ["CCCCC(=O)Nc1cncc(-c2cc3c(-c4cc5c(-c6ccccc6F)ccnc5[nH]4)n[nH]c3cn2)c1", "pEC50", 6.62],
  ["CN1CCN(c2ccnc3[nH]c(-c4n[nH]c5cnc(-c6cncc(N(C)C)c6)cc45)cc23)CC1", "pEC50", "< 5.00"],
  ["c1ccc(-c2cc3c(-c4cc5c(-c6ccncc6)ccnc5[nH]4)n[nH]c3cn2)nc1", "pEC50", "< 5.00"],
  ["O=C(Nc1cncc(-c2cc3c(-c4cc5c(-c6ccoc6)ccnc5[nH]4)n[nH]c3cn2)c1)C1CC1", "pEC50", 6.97],
  ["Fc1cccc(-c2ccnc3[nH]c(-c4n[nH]c5cnc(-c6cncc(OCc7ccccc7)c6)cc45)cc23)c1", "pEC50", "< 5.00"],
  ["c1cncc(-c2cc3c(-c4cc5cccnc5[nH]4)n[nH]c3cn2)c1", "pEC50", "< 5.00"]
]}

GET /values?readout=pEC50&item= CC(C)CC(=O)Nc1cncc(-c2cc3c(-c4cc5c(-c6ccncc6)ccnc5[nH]4)n[nH]c3cn2)c1
< 5.00

GET /values?readout=pEC50&item= Fc1cccc(-c2ccnc3[nH]c(-c4n[nH]c5cnc(-c6cccnc6)cc45)cc23)c1
5.56

GET /values?readout=pEC50&item= Fc1ccc(-c2ccnc3[nH]c(-c4n[nH]c5cnc(-c6cncc(CN7CCC(F)(F)C7)c6)cc45)cc23)cc1
5.86

GET /values?readout=pEC50&item= O=C(Nc1cncc(-c2cc3c(-c4cc5c(N6CCCCC6)ccnc5[nH]4)n[nH]c3cn2)c1)C1CC1
5.89

The reported numbers originate from patent US10285982B2.
